- targetOrSystem: Serine/threonine-protein kinase haspin (Homo sapiens) (UniProt Q8TF76)
- Sequence (Q8TF76 whole entry): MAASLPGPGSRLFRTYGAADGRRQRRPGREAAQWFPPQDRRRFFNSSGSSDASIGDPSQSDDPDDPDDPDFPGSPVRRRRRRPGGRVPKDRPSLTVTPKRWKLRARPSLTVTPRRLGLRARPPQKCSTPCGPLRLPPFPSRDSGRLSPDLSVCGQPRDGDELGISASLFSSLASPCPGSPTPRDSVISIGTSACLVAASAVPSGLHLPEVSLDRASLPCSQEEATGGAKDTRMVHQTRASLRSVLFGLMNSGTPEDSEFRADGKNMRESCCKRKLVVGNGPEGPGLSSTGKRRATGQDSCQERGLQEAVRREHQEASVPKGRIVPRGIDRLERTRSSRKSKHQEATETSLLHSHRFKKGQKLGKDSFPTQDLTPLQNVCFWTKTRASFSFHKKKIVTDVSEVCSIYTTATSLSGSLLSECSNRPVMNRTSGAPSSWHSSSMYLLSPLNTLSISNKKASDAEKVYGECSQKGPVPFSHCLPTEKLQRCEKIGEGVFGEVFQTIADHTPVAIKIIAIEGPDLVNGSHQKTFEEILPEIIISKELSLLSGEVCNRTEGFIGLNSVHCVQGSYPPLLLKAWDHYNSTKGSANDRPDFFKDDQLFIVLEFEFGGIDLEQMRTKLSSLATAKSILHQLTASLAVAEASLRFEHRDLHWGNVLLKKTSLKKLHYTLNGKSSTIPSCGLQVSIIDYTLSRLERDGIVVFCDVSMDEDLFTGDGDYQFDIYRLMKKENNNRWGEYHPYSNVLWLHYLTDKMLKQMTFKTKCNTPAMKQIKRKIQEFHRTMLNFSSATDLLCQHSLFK
- particulars: at 1 µM
# reported residual activity; entries follow

compound	valueUnit	residual activity
NC(=O)c1ccc2[nH]c(-c3ccc(Oc4ccc(Cl)cc4)cc3)nc2c1	%	89
Cc1ccc(NC2=CC(=O)c3sc(C)nc3C2=O)cc1	%	105
Cc1cncc2cccc(S(=O)(=O)N3CCCN(C(=O)CN)C[C@H]3C)c12	%	91
N#CC(C#N)=C(N)/C(C#N)=C/c1ccc(O)cc1	%	88
O=C(Nc1cccc(Nc2cc(Nc3cccc(C(F)(F)F)c3)ncn2)c1)C1CC1	%	110
COc1ccc(S(=O)(=O)N(CCO)c2ccccc2CN(C)C/C=C/c2ccc(Cl)cc2)cc1	%	82
N#C/C(=C(\N)Sc1ccc(N)cc1)c1ccccc1C(F)(F)F	%	108
Oc1ccc(-c2nc(-c3ccc(F)cc3)c(-c3ccncc3)[nH]2)cc1	%	55
c1ccc(-c2n[nH]c3c2oc2ccccc23)cc1	%	90
N#Cc1cnc2cnc(NCc3cccnc3)cc2c1Nc1ccc(F)c(Cl)c1	%	102
CCC(=O)Nc1ccc2ncnc(Nc3cccc(Br)c3)c2c1	%	109
Oc1n[nH]c2nnc(-c3c(-c4ccccc4)nn4ccccc34)cc12	%	114
Cc1ccc(S(=O)(=O)/C=C/C#N)cc1	%	94
CC(=O)O/N=C1\C(=C2\C(=O)Nc3cc(Br)ccc32)Nc2ccccc21	%	93
CC(C)n1cnc2c(NCc3ccccc3)nc(NCCCO)nc21	%	101
O=C(Nc1cccc(Nc2nccc(Nc3cccc(C(F)(F)F)c3)n2)c1)C1CC1	%	71
O=c1cc(-c2cccc3c2Sc2ccccc2S3)oc(N2CCOCC2)c1	%	94
CC(=O)c1ccc(N2CCOCC2)cc1O	%	78
Cc1cc2ncc(-c3ccccc3)nc2cc1C	%	87
Oc1c2ccccc2c2c3c(cccc13)N=N2	%	10
Nc1ccc2ncnc(NCCc3ccc(Oc4ccccc4)cc3)c2c1	%	75
C[C@@H](N)[C@H]1CC[C@H](C(=O)Nc2ccncc2)CC1	%	109
O=C1Nc2ccccc2/C1=C1/Nc2ccccc2/C1=N\OCCC(O)CO (stereo not drawn)	%	13
